experimental.details: Therapeutic index, ratio of MCC50 for human HeLa cells to MIC for inhibition of flavodoxin in rifampicin-resistant Helicobacter pylori isolate 5 assessed as reduction in bacterial growth
Format: toxicity
conditions.used: read-out: TI
Rule: selectivity ratio under 9 gives 0 (no), otherwise 1 (yes).

| compound | cat |
| --- | --- |
| COc1ccc(C[S+]([O-])c2ccc(N)c3nonc23)cc1 (stereo unspecified) | 1 (yes) |
| COc1ccc(CS(=O)(=O)c2ccc(N)c3nonc23)cc1 | 1 (yes) |
| O/N=C/Cc1cc(C(F)(F)F)cc(C(F)(F)F)c1 | 0 (no) |
| COc1ccc(CSc2cc(Cl)c(N)c3nonc23)cc1 | 1 (yes) |
| O=[N+]([O-])CCc1ccccc1 | 0 (no) |

----------
experimental.details: Cytotoxicity against human HeLa cells assessed as reduction in cell viability by XTT assay
Assay type: cell-based
conditions.used: read-out: MCC50
recorded.metric: CC50

| molecule | recorded.metric | result |
| --- | --- | --- |
| COc1ccc(C[S+]([O-])c2ccc(N)c3nonc23)cc1 (stereo not given) | CC50 | > 1000 µM |
| COc1ccc(C[S+]([O-])c2ccc([N+](=O)[O-])c3nonc23)cc1 (stereo not given) | CC50 | 179 µM |
| O=[N+]([O-])CCc1ccccc1 | CC50 | > 1000 µM |
| O=[N+]([O-])CCc1cc(C(F)(F)F)cc(C(F)(F)F)c1 | CC50 | > 1000 µM |
| COc1ccc(CS(=O)(=O)c2ccc(N)c3nonc23)cc1 | CC50 | > 1000 µM |
| Cc1ncc([N+](=O)[O-])n1CCO | CC50 | > 1000 µM |
| NCCc1ccccc1 | CC50 | > 1000 µM |
| Cc1ncc(N)n1CCO | CC50 | > 1000 µM |
| O=[N+]([O-])/C=C/c1c(F)cc(Cl)cc1F | CC50 | 36 µM |
| O/N=C/Cc1cc(C(F)(F)F)cc(C(F)(F)F)c1 | CC50 | > 500 µM |
| NCCc1cc(C(F)(F)F)cc(C(F)(F)F)c1 | CC50 | > 500 µM |
| ONCCc1ccccc1 | CC50 | > 1000 µM |
| O=[N+]([O-])/C=C/c1cc(C(F)(F)F)cc(C(F)(F)F)c1 | CC50 | 15 µM |
| O/N=C1\Cc2cc(Cl)cc(Cl)c2OC1c1ccc(F)cc1 (stereo not given) | CC50 | 117 µM |
| COc1ccc(CSc2cc(Cl)c(N)c3nonc23)cc1 | CC50 | > 1000 µM |

----------
experimental.details: Therapeutic index, ratio of MCC50 for human HeLa cells to MIC for inhibition of flavodoxin in Mnz-resistant Helicobacter pylori NCTC 11637 ATCC 43504 assessed as reduction in bacterial growth
Format: toxicity
conditions.used: read-out: TI

| compound | sign.qualifier | selectivity ratio |
| --- | --- | --- |
| O=[N+]([O-])/C=C/c1c(F)cc(Cl)cc1F | = | 16 |
| O=[N+]([O-])/C=C/c1cc(C(F)(F)F)cc(C(F)(F)F)c1 | = | 4.3 |
| Cc1ncc([N+](=O)[O-])n1CCO | > | 5.3 |
| COc1ccc(CSc2cc(Cl)c(N)c3nonc23)cc1 | > | 85 |
| COc1ccc(C[S+]([O-])c2ccc(N)c3nonc23)cc1 (stereo unspecified) | > | 19 |
| COc1ccc(C[S+]([O-])c2ccc([N+](=O)[O-])c3nonc23)cc1 (stereo unspecified) | = | 30 |

----------
experimental.details: Therapeutic index, ratio of MCC50 for human HeLa cells to MIC for inhibition of flavodoxin in metronidazole-resistant Helicobacter pylori isolate 2 assessed as reduction in bacterial growth
Format: toxicity
conditions.used: read-out: TI
Rule: selectivity ratio under 10 gives No, otherwise Yes.

| compound | cat |
| --- | --- |
| O=[N+]([O-])CCc1ccccc1 | No |
| O=[N+]([O-])CCc1cc(C(F)(F)F)cc(C(F)(F)F)c1 | No |
| COc1ccc(C[S+]([O-])c2ccc(N)c3nonc23)cc1 (stereo unspecified) | No |
| O/N=C/Cc1cc(C(F)(F)F)cc(C(F)(F)F)c1 | No |
| COc1ccc(CSc2cc(Cl)c(N)c3nonc23)cc1 | Yes |

----------
Quick reference: selectivity ratio of the listed items.
experimental.details: Therapeutic index, ratio of MCC50 for human HeLa cells to MIC for inhibition of flavodoxin in Helicobacter pylori ATCC 700392 26695 assessed as reduction in bacterial growth
Assay type: toxicity
conditions.used: HeLa cells versus Helicobacter pylori ATCC 700392 26695, read-out: TI

| compound | selectivity ratio |
| --- | --- |
| COc1ccc(C[S+]([O-])c2ccc([N+](=O)[O-])c3nonc23)cc1 (stereo not given) | 30 |
| O=[N+]([O-])CCc1ccccc1 | > 9.4 |
| O/N=C1\Cc2cc(Cl)cc(Cl)c2OC1c1ccc(F)cc1 (stereo not given) | 19 |
| O/N=C/Cc1cc(C(F)(F)F)cc(C(F)(F)F)c1 | > 4.2 |
| COc1ccc(CSc2cc(Cl)c(N)c3nonc23)cc1 | > 170 |

----------
target.or.test.system: Flavodoxin (Helicobacter pylori (strain ATCC 700392 / 26695) (Campylobacter pylori))
experimental.details: Inhibition of flavodoxin in Helicobacter pylori SS1 assessed as reduction in bacterial growth measured after 48 hrs by resazurin staining-based microdilution method
Quick reference: MIC of the listed items.
recorded.metric: MIC

| chemical.smiles | result |
| --- | --- |
| ONCCc1ccccc1 | > 233 µM |
| Cc1ncc(N)n1CCO | > 453 µM |
| NCCc1cc(C(F)(F)F)cc(C(F)(F)F)c1 | > 249 µM |

----------
Quick reference: MIC of the listed items.
target.or.test.system: Flavodoxin (Helicobacter pylori (strain ATCC 700392 / 26695) (Campylobacter pylori)) (UniProt O25776)
Sequence (O25776 whole entry): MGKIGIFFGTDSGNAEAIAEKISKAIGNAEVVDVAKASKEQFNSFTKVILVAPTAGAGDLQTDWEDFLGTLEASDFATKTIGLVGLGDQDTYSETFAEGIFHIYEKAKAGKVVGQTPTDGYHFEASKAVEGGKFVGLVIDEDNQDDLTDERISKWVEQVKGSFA
experimental.details: Inhibition of flavodoxin in Mnz-resistant Helicobacter pylori NCTC 11637 ATCC 43504 assessed as reduction in bacterial growth measured after 48 hrs by resazurin staining-based microdilution method
conditions.used: Helicobacter pylori NCTC 11637 = CCUG 17874 = ATCC 43504

| compound | MIC |
| --- | --- |
| O=[N+]([O-])CCc1cc(C(F)(F)F)cc(C(F)(F)F)c1 | 56 µM |
| O=[N+]([O-])CCc1ccccc1 | 212 µM |
| COc1ccc(CSc2cc(Cl)c(N)c3nonc23)cc1 | 11.8 µM |
| Cc1ncc(N)n1CCO | 227 µM |
| COc1ccc(C[S+]([O-])c2ccc([N+](=O)[O-])c3nonc23)cc1 (stereo unspecified) | 6 µM |
| ONCCc1ccccc1 | > 233 µM |
| O/N=C1\Cc2cc(Cl)cc(Cl)c2OC1c1ccc(F)cc1 (stereo unspecified) | 6.1 µM |
| O=[N+]([O-])/C=C/c1c(F)cc(Cl)cc1F | 2.3 µM |
| COc1ccc(C2(C)SCc3cc(C)c(C)cc3CS2)cc1 | 3 µM |
| O=[N+]([O-])C1=Cc2cc(Cl)cc(Cl)c2OC1c1ccc(F)cc1 (stereo unspecified) | 0.37 µM |
| NCCc1ccccc1 | 66 µM |
